- protocol.description: AML12 hepatocyte cytotoxicity, counter-screen for hepatic lipid droplet formation project, imaging, DAPI nuclear morphology imaging (AID 463200);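 further: compound exposure lasted overnight at 37 °C before fixation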
- condition.set: AML12 mouse hepatocytes, at 5 µM, hits give high values, cells fed 100 µM oleate overnight
This is one part of the list. Activity calls are given as the source filed them. No stated cut-off is given here; in the data, active means z-score above about 6.3; inactive means the rest.
readout.kind: z-score

| compound | reported |
| --- | --- |
| Cc1cc(NC(=O)CSc2nc(C(C)C)nc3sc4c(c23)CCC(C)C4)no1 (centres undefined) | -0.355 (inactive) |
| CCCc1ccc(-c2csc(NC(=O)Cc3cccs3)n2)cc1 | -0.171 (inactive) |
| COc1ccc(OC)c(-c2csc(-c3cccs3)n2)c1 | -0.885 (inactive) |
| CC(C)(C)NC(=O)Cn1cnc2cc([N+](=O)[O-])ccc2c1=O | -1.05 (inactive) |

* * *

- protocol.description: AML12 hepatocyte cytotoxicity, counter-screen for hepatic lipid droplet formation project, imaging, DAPI nuclear morphology imaging (AID 463200);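 further: compound exposure lasted overnight at 37 °C before fixation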
- condition.set: AML12 mouse hepatocytes, at 5 µM, hits give high values, cells fed 100 µM oleate overnight
Some of the results follow.
z-score of -0.02 or higher: T. Under -0.02: F.

| compound | classification |
| --- | --- |
| Cc1cc(C(=O)NC2CCCc3c2cnn3-c2cccc(C)c2C)c(C)o1 (stereo not given) | T |
| Cn1c(=O)[nH]c(=O)c2c1nc(N1CCN(C(c3ccccc3)c3ccccc3)CC1)n2CCO | T |
| CCCN(CCC)c1nc2c(C)cccn2c(=O)c1/C=C1/SC(=S)N(Cc2ccco2)C1=O | F |
| O=[N+]([O-])c1ccccc1N/N=C1\CCc2ccccc21 | T |
| COc1cc(/C=N/NC(=O)Nc2ccccc2)ccc1OCCOc1ccccc1C | T |
| Cc1c(C(=O)NCc2ccccc2)cnn1-c1ccccc1 | F |
| CCCCN1C(=O)/C(=C/C=C2/C=Cc3ccccc3N2CC)SC1=S | F |
| COc1ccc(/C=C(\NC(=O)c2ccc(OCC(C)C)cc2)C(=O)OCc2ccco2)cc1 | F |
| O=C1Nc2ccc(Br)cc2/C1=N/N=C/C1=C(N2CCOCC2)C(=C\c2ccccc2)/CC1 | F |
| Cc1ccc(N2C(=O)C(NC(=O)c3c(F)cccc3F)(C(F)(F)F)C3=C2CC(C)(C)CC3=O)cc1 (stereo not given) | F |
